Source: the NIST ThermoML archive (doi:10.1016/j.jct.2017.08.004)

# conditions: 230 K; 101.33 kPa; Crystal; relaxation calorimetry
measured_attribute: molar entropy (J/K/mol)
Express it in J/K/mol; write the number only.

Field: example entries. Status: answers known.
>  <compound>
O[C@H]1[C@H](O)[C@@H](O)[C@H](O)[C@@H](O)[C@H]1O [cis-1,2,3,5-trans-4,6-cyclohexanehexol]

>  <measured_attribute>
molar entropy

>  <measure_unit>
J/K/mol

>  <numeric_readout>
148.47

$$$$
>  <compound>
OC[C@H](O)C(O)[C@@H](O)CO [L-(-)-arabitol]

>  <measured_attribute>
molar entropy

>  <measure_unit>
J/K/mol

>  <numeric_readout>
154.69

$$$$

Input line: Output molar entropy of "OC[C@@H](O)[C@H](O)[C@@H](O)CO"
Output line: 150.72

* * *

# conditions: 330 K; 101.33 kPa; Crystal; Small sample (50 mg) DSC
Measured molar entropy of individual entries
Please state the figure in J/K/mol; there is no need to write the unit.

Here are 3 molecules together with their reported answers.
>  <molecule>
OC[C@H](O)C(O)[C@@H](O)CO [L-(-)-arabitol]

>  <molar entropy (J/K/mol)>
224.32

$$$$
>  <molecule>
OC[C@@H](O)[C@@H](O)[C@H](O)[C@H](O)CO

>  <molar entropy (J/K/mol)>
251.82

$$$$
>  <molecule>
OC[C@@H](O)[C@@H](O)CO

>  <molar entropy (J/K/mol)>
183.15

$$$$

Input line: Given the molecule O[C@H]1[C@H](O)[C@@H](O)[C@H](O)[C@@H](O)[C@H]1O [cis-1,2,3,5-trans-4,6-cyclohexanehexol] , write its reported molar entropy.
Output line: 221.64

Input line: For the molecule "OC[C@@H](O)[C@H](O)[C@@H](O)CO" , report molar entropy.
Output line: 220.72

Input line: Please give measured molar entropy of the following entry: "OC[C@@H](O)C(O)[C@H](O)CO"
Output line: 221.5

* * *

The reader will find reported molar entropy values listed item by item below.
# conditions: 140 K; 101.33 kPa; Crystal; relaxation calorimetry
Give just the number in J/K/mol; leave the unit off.

The following compounds have reported results that may help.
>  <compound>
OC[C@H](O)C(O)[C@@H](O)CO [L-(-)-arabitol]

>  <molar entropy, J/K/mol>
89.7

$$$$
>  <compound>
O[C@H]1[C@H](O)[C@@H](O)[C@H](O)[C@@H](O)[C@H]1O [cis-1,2,3,5-trans-4,6-cyclohexanehexol]

>  <molar entropy, J/K/mol>
82.8

$$$$
>  <compound>
OC[C@@H](O)[C@@H](O)CO

>  <molar entropy, J/K/mol>
74.74

$$$$
>  <compound>
OC[C@@H](O)C(O)[C@H](O)CO

>  <molar entropy, J/K/mol>
89.01

$$$$
>  <compound>
OC[C@@H](O)[C@H](O)[C@@H](O)CO

>  <molar entropy, J/K/mol>
85.82

$$$$

// next entry
Input line: Respond only with molar entropy recorded for "OC[C@@H](O)[C@@H](O)[C@H](O)[C@H](O)CO"
Output line: 100.91

* * *

# test_summary: molar heat capacity at constant pressure
# conditions: 262.15 K; 101.33 kPa; Crystal; Small sample (50 mg) DSC
Numbers after ± are expanded uncertainties.
measured_attribute: molar heat capacity at constant pressure
# number then unit; no other words

Example entries begin here.
>  <compound>
OC[C@@H](O)[C@H](O)[C@@H](O)CO

>  <result>
183.56 ± 11 J/K/mol

$$$$
>  <compound>
OC[C@@H](O)[C@@H](O)[C@H](O)[C@H](O)CO

>  <result>
203.84 ± 33 J/K/mol

$$$$
>  <compound>
OC[C@@H](O)C(O)[C@H](O)CO

>  <result>
175.71 ± 14 J/K/mol

$$$$
>  <compound>
O[C@H]1[C@H](O)[C@@H](O)[C@H](O)[C@@H](O)[C@H]1O [cis-1,2,3,5-trans-4,6-cyclohexanehexol]

>  <result>
190.24 ± 27 J/K/mol

$$$$
>  <compound>
OC[C@@H](O)[C@@H](O)CO

>  <result>
145.34 ± 18 J/K/mol

$$$$

Input line: Could you please provide reported molar heat capacity at constant pressure for OC[C@H](O)C(O)[C@@H](O)CO [L-(-)-arabitol] ? Thanks!
Output line: 181.78 ± 36 J/K/mol

* * *

# test_summary: molar heat capacity at constant pressure
# conditions: 416.15 K; 101.33 kPa; Liquid; Small sample (50 mg) DSC
Numbers after ± are expanded uncertainties.
Listed here are molecules together with their documented molar heat capacity at constant pressure.
State the value with its unit after it.

// below: answered molecules
>  <molecule>
OC[C@H](O)C(O)[C@@H](O)CO [L-(-)-arabitol]

>  <result>
451.74 ± 91 J/K/mol

$$$$
>  <molecule>
OC[C@@H](O)C(O)[C@H](O)CO

>  <result>
453.35 ± 37 J/K/mol

$$$$
>  <molecule>
OC[C@@H](O)[C@@H](O)CO

>  <result>
354.79 ± 43 J/K/mol

$$$$

Consider now this further molecule.
Input line: Quickly give me recorded molar heat capacity at constant pressure for "OC[C@@H](O)[C@H](O)[C@@H](O)CO"
Output line: 444.07 ± 27 J/K/mol

* * *

# test_summary: molar heat capacity at constant pressure
# conditions: 272.15 K; 101.33 kPa; Crystal; Small sample (50 mg) DSC
Everything with molar heat capacity at constant pressure lower than 200 J/K/mol is false; everything else, including exactly 200 J/K/mol, is true.

# example entries with known answers
>  <compound>
OC[C@@H](O)[C@@H](O)CO [meso-1,2,3,4-butanetetrol]

>  <cat>
false

$$$$
>  <compound>
OC[C@@H](O)[C@@H](O)[C@H](O)[C@H](O)CO [D-mannitol]

>  <cat>
true

$$$$
>  <compound>
OC[C@@H](O)[C@H](O)[C@@H](O)CO [xylitol]

>  <cat>
false

$$$$
>  <compound>
OC[C@H](O)C(O)[C@@H](O)CO [L-(-)-arabitol]

>  <cat>
false

$$$$

From here, focus on the item given below.
Input line: Given OC[C@@H](O)C(O)[C@H](O)CO [D-arabitol] , state whether its molar heat capacity at constant pressure is at least 200 J/K/mol.
Output line: false

* * *

# test_summary: molar heat capacity at constant pressure
# conditions: 1 K; 101.33 kPa; Crystal; relaxation calorimetry
// molar heat capacity at constant pressure lookup, one value per entry
# number only, unit J/K/mol dropped from output

Example entries begin here.
>  <compound>
O[C@H]1[C@H](O)[C@@H](O)[C@H](O)[C@@H](O)[C@H]1O [cis-1,2,3,5-trans-4,6-cyclohexanehexol]

>  <measured_attribute>
molar heat capacity at constant pressure

>  <numeric_readout>
0.00189

$$$$
>  <compound>
OC[C@@H](O)C(O)[C@H](O)CO [D-arabitol]

>  <measured_attribute>
molar heat capacity at constant pressure

>  <numeric_readout>
0.0009451

$$$$
>  <compound>
OC[C@@H](O)[C@@H](O)CO [meso-1,2,3,4-butanetetrol]

>  <measured_attribute>
molar heat capacity at constant pressure

>  <numeric_readout>
0.00103

$$$$
>  <compound>
OC[C@@H](O)[C@@H](O)[C@H](O)[C@H](O)CO [D-mannitol]

>  <measured_attribute>
molar heat capacity at constant pressure

>  <numeric_readout>
0.001199

$$$$
>  <compound>
OC[C@@H](O)[C@H](O)[C@@H](O)CO [xylitol]

>  <measured_attribute>
molar heat capacity at constant pressure

>  <numeric_readout>
0.0008271

$$$$

We now examine a further compound.
Input line: Entry OC[C@H](O)C(O)[C@@H](O)CO [L-(-)-arabitol] needs its molar heat capacity at constant pressure filled in; supply it.
Output line: 0.0009071

* * *

# test_summary: molar heat capacity at constant pressure
# conditions: 3 K; 101.33 kPa; Crystal; relaxation calorimetry
measured_attribute: molar heat capacity at constant pressure (J/K/mol)
API: value field is a number in J/K/mol; no unit string.

>  <compound>
OC[C@@H](O)[C@@H](O)[C@H](O)[C@H](O)CO [D-mannitol]

>  <molar heat capacity at constant pressure [J/K/mol]>
0.02469

$$$$
>  <compound>
OC[C@H](O)C(O)[C@@H](O)CO [L-(-)-arabitol]

>  <molar heat capacity at constant pressure [J/K/mol]>
0.01737

$$$$
>  <compound>
OC[C@@H](O)[C@@H](O)CO [meso-1,2,3,4-butanetetrol]

>  <molar heat capacity at constant pressure [J/K/mol]>
0.01982

$$$$
>  <compound>
OC[C@@H](O)[C@H](O)[C@@H](O)CO [xylitol]

>  <molar heat capacity at constant pressure [J/K/mol]>
0.02164

$$$$
>  <compound>
OC[C@@H](O)C(O)[C@H](O)CO [D-arabitol]

>  <molar heat capacity at constant pressure [J/K/mol]>
0.01673

$$$$

Input line: Please report molar heat capacity at constant pressure for the following compound: O[C@H]1[C@H](O)[C@@H](O)[C@H](O)[C@@H](O)[C@H]1O [cis-1,2,3,5-trans-4,6-cyclohexanehexol]
Output line: 0.03479
